method.description: Stability of compound in mouse plasma assessed as degradation of compound by measuring half life incubated for 48 hrs by RP-HPLC analysis
Type: ADME, cell-free
observable: half-life (h)
The reply should contain only the number, in h.

Query (molecule): N=C(N)NCCC[C@H](NC(=O)CNC(=O)[C@H]1CCCN1C(=O)[C@H](CCCNC(=N)N)NC(=O)[C@H](Cc1ccccc1)NC(=O)[C@H](CCCNC(=N)N)NC(=O)[C@H](Cc1ccccc1)NC(=O)[C@H](CCCNC(=N)N)NC(=O)[C@@H](N)Cc1ccccc1)C(=O)N[C@@H](Cc1ccccc1)C(=O)N[C@@H](CCCNC(=N)N)C(=O)N[C@@H](Cc1ccccc1)C(=O)N[C@@H](CCCNC(=N)N)C(=O)N[C@@H](Cc1ccccc1)C(N)=O ; field requested: half-life
3.03
